Literature compilation of IC50 measurements on Histone deacetylase 1 (Homo sapiens, UniProt Q13547).
Sequence (Q13547 whole entry): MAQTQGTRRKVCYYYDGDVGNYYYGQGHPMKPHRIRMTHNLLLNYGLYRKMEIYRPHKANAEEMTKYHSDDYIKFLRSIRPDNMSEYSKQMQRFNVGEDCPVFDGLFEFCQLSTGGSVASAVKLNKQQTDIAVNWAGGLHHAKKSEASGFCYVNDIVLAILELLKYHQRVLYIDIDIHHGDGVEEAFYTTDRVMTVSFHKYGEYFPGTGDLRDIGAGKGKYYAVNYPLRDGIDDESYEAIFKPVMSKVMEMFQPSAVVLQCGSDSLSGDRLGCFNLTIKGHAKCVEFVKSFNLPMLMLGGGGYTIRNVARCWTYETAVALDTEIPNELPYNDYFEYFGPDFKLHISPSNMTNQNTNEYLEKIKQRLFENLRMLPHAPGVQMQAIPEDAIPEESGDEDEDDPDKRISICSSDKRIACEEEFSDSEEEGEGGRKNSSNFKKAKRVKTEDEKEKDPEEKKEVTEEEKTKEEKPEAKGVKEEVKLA

Which measured IC50 belongs to CC(Cc1ccccc1)C(=O)SCCCCCCC(=O)Nc1nc(-c2ccccc2)cs1 (stereo not drawn) , tested on Histone deacetylase 1 (Homo sapiens, UniProt Q13547)?
> 100 µM

Which measured IC50 belongs to CC(C)C[C@H](NC(=O)[C@@H](O)[C@H](N)Cc1ccccc1)C(=O)O , tested on Histone deacetylase 1 (Homo sapiens, UniProt Q13547)?
> 10 µM

Which measured IC50 belongs to O=C(c1ccc(-c2nc(-c3ccc(Cl)cc3Cl)no2)s1)C(F)(F)F , tested on Histone deacetylase 1 (Homo sapiens, UniProt Q13547)?
> 5 µM
